// provenance: ChEMBL document CHEMBL3822409

ASSAY OVERVIEW: Selectivity index, ratio of CC50 for human HeLa cells to MIC for active stage of Mycobacterium bovis BCG ATCC 35734
Assay type: toxicity, cell-based
PROTOCOL CONDITIONS: read-out: Selectivity Index

- COMPOUND STRUCTURE STRING: "Cc1nc(-c2cccnc2)sc1-c1nnc(-c2ccc([N+](=O)[O-])cc2)o1"
  selectivity ratio: 3
- COMPOUND STRUCTURE STRING: "Cc1ccccc1-c1nnc(-c2sc(-c3cccnc3)nc2C)o1"
  selectivity ratio: 17
- COMPOUND STRUCTURE STRING: "Cc1nc(-c2cccnc2)sc1-c1nnc(-c2cccc(Cl)c2Cl)o1"
  selectivity ratio: 3
- COMPOUND STRUCTURE STRING: "COc1ccccc1-c1nnc(-c2sc(-c3cccnc3)nc2C)o1"
  selectivity ratio: 38
- COMPOUND STRUCTURE STRING: "Cc1cccc(-c2nnc(-c3sc(-c4cccnc4)nc3C)o2)c1"
  selectivity ratio: 3
- COMPOUND STRUCTURE STRING: "Cc1nc(-c2cccnc2)sc1-c1nnc(-c2ccccc2Cl)o1"
  selectivity ratio: 19

* * *

ASSAY OVERVIEW: Selectivity index, ratio of CC50 for human HCT116 cells to MIC for active stage of Mycobacterium bovis BCG ATCC 35734
Assay type: toxicity, cell-based, HCT-116
PROTOCOL CONDITIONS: read-out: Selectivity Index

- COMPOUND STRUCTURE STRING: "Cc1cccc(-c2nnc(-c3sc(-c4cccnc4)nc3C)o2)c1"
  selectivity ratio: 3
- COMPOUND STRUCTURE STRING: "CO[C@H]1/C=C/O[C@@]2(C)Oc3c(C)c(O)c4c(O)c(c(/C=N/N5CCN(C)CC5)c(O)c4c3C2=O)NC(=O)/C(C)=C\\C=C\\[C@H](C)[C@H](O)[C@@H](C)[C@@H](O)[C@@H](C)[C@H](OC(C)=O)[C@@H]1C"
  selectivity ratio: 1250
- COMPOUND STRUCTURE STRING: "COc1ccccc1-c1nnc(-c2sc(-c3cccnc3)nc2C)o1"
  selectivity ratio: 38
- COMPOUND STRUCTURE STRING: "Cc1nc(-c2cccnc2)sc1-c1nnc(-c2ccc([N+](=O)[O-])cc2)o1"
  selectivity ratio: 3
- COMPOUND STRUCTURE STRING: "Cc1nc(-c2cccnc2)sc1-c1nnc(-c2ccc(Br)cc2)o1"
  selectivity ratio: 3
- COMPOUND STRUCTURE STRING: "Cc1nc(-c2cccnc2)sc1-c1nnc(-c2ccccc2[N+](=O)[O-])o1"
  selectivity ratio: 39
- COMPOUND STRUCTURE STRING: "Cc1ccccc1-c1nnc(-c2sc(-c3cccnc3)nc2C)o1"
  selectivity ratio: 17
- COMPOUND STRUCTURE STRING: "Cc1nc(-c2cccnc2)sc1-c1nnc(-c2ccncc2)o1"
  selectivity ratio: 2
- COMPOUND STRUCTURE STRING: "Cc1nc(-c2cccnc2)sc1-c1nnc(-c2ccccc2)o1"
  selectivity ratio: 3

* * *

ASSAY OVERVIEW: Selectivity index, ratio of CC50 for human HeLa cells to MIC for dormant stage of Mycobacterium bovis BCG ATCC 35734
Type: toxicity, cell-based
PROTOCOL CONDITIONS: read-out: Selectivity Index
MEASURED PARAMETER: selectivity ratio

- COMPOUND STRUCTURE STRING: "Cc1cccc(-c2nnc(-c3sc(-c4cccnc4)nc3C)o2)c1"
  MEASURED PARAMETER: "selectivity ratio"
  OBSERVED RESULT: 3
- COMPOUND STRUCTURE STRING: "Cc1nc(-c2cccnc2)sc1-c1nnc(-c2ccc(Cl)cc2)o1"
  MEASURED PARAMETER: "selectivity ratio"
  OBSERVED RESULT: 3
- COMPOUND STRUCTURE STRING: "Cc1nc(-c2cccnc2)sc1-c1nnc(-c2ccc(Br)cc2)o1"
  MEASURED PARAMETER: "selectivity ratio"
  OBSERVED RESULT: 3
- COMPOUND STRUCTURE STRING: "Cc1nc(-c2cccnc2)sc1-c1nnc(-c2ccc([N+](=O)[O-])cc2)o1"
  MEASURED PARAMETER: "selectivity ratio"
  OBSERVED RESULT: 3
